assayRemarks: Plasma pharmacokinetics after a single subcutaneous dose in healthy volunteers
Assay type: in vivo, human
conditionContext: male, human, plasma, sc, 1200 ug
*1 amine or outer side, *2 acyl side, *3 side chain or, on linkers, in order; H or OH if unused. Where a SMILES comes first, the peptide text is derived from it. Side-chain parts run from the residue outwards. [ ]: non-standard residue; d: D form. The star is where a group is joined. Ethylenediamine = C(CN[*:2])N[*:1]; Hyp = O=C(O)[C@@H]1C[C@@H](O)CN1; Phg = N[C@H](C(=O)O)c1ccccc1; CO = O=C([*:1])[*:2]; Bn = c1ccc(C*)cc1
reportedMetric: Tmax (min)
Give bare numbers, in min.

Q: Looking for the measured Tmax of NCCCC[C@@H]1NC(=O)[C@@H](Cc2c[nH]c3ccccc23)NC(=O)[C@H](c2ccccc2)NC(=O)[C@@H]2C[C@@H](OC(=O)NCCN)CN2C(=O)[C@H](Cc2ccccc2)NC(=O)[C@H](Cc2ccc(OCc3ccccc3)cc2)NC1=O [Pasireotide] (cyclo([Hyp]([CO-Ethylenediamine])[Phg][dW]KY(Bn)F)) , can you help?
Ans: 30
